Reported values: pKi for DPP-IV (Homo sapiens), one per item.
pKi: −log10 of the molar value.

INSERT INTO assay_data (compound, reported_property, assay_value) VALUES
  ('N#Cc1cccc(CN2C(=O)[C@@H]3CC2CN3C[C@H](N)C(=O)N2[C@H](C#N)C[C@@H]3C[C@@H]32)c1 [Example 54]', 'pKi', '> 8.22'),
  ('CC(C)(c1ccc(F)cc1)N1C(=O)[C@@H]2CC1CN2C[C@H](N)C(=O)N1CCC[C@H]1C#N [Example 59]', 'pKi', '> 8.22'),
  ('N#C[C@@H]1CCCN1C(=O)[C@@H](N)CN1C[C@@H]2C[C@H]1CN2C(=O)Cc1cccs1 [Example 76]', 'pKi', '7.30 to 8.22');

Request: Return reported pKi for target or system DPP-IV (Homo sapiens), item N#C[C@@H]1CCCN1C(=O)CNCCC1(C(N)=O)c2ccccc2CCc2ccccc21 [Example 17] .
Response: 7.30 to 8.22

Request: Print DPP-IV (Homo sapiens) pKi for C[C@@H](CC1(c2nn[nH]n2)c2ccc(C(=O)N3CCOCC3)cc2CCc2cc(C(=O)N3CCOCC3)ccc21)NCC(=O)N1CCC[C@H]1C#N [Example 33] .
Response: > 8.22

Request: GET pKi where system = DPP-IV (Homo sapiens) and item = CC(C)(c1ccc(F)cc1)N1C(=O)[C@@H]2CC1CN2C[C@H](N)C(=O)N1[C@H](C#N)C[C@@H]2C[C@@H]21 [Example 62]
Response: > 8.22

Request: Report measured pKi on DPP-IV (Homo sapiens); entry: N#C[C@@H]1CCCN1C(=O)CNCCC1(O)c2ccccc2CCc2ccccc21 [Example 10]
Response: 6.30 to 7.29

Request: Please report the measured pKi for C[C@@H](CC1(C(N)=O)c2ccccc2CCc2ccccc21)NCC(=O)N1CCC[C@H]1C#N [Example 18] tested on DPP-IV (Homo sapiens).
Response: > 8.22

Request: State measured pKi of the compound N#C[C@@H]1CCCN1C(=O)[C@@H](N)CN1C(=O)[C@@H]2C[C@H]1CN2C(=O)CC1c2ccccc2C=Cc2ccccc21 [Example 72] with DPP-IV (Homo sapiens).
Response: > 8.22

----------
DPP-IV (Homo sapiens, UniProt P27487): reported pKi for various compounds.
Sequence (P27487 whole entry): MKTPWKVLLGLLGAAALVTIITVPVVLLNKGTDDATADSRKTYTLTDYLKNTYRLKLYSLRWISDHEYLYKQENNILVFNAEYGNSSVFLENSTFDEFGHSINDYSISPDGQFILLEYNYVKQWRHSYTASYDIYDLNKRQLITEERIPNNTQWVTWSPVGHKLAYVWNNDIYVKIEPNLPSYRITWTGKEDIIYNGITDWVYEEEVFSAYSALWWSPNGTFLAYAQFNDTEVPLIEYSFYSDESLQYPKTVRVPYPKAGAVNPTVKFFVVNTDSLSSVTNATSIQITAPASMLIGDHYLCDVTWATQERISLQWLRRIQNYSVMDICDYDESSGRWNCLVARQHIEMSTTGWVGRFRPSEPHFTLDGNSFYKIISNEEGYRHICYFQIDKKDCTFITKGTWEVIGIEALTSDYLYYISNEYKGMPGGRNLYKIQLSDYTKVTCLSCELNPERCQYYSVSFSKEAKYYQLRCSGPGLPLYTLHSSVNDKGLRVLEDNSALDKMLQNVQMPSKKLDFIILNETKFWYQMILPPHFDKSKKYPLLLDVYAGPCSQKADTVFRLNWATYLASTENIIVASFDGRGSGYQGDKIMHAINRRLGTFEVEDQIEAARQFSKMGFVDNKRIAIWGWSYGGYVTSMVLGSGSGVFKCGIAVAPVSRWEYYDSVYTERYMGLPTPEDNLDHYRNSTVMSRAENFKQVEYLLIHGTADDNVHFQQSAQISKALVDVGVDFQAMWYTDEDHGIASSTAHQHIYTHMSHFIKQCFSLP
pKi: −log10 of the molar value.

Known pKi results, listed for orientation:
INSERT INTO measurements (compound, test_target, assay_value) VALUES
  ('N#C[C@@H]1CCCN1C(=O)CNCC=C1c2ccccc2CCc2ccccc21', 'DPP-IV (Homo sapiens, UniProt P27487)', '6.30 to 7.29'),
  ('C[C@H](c1ccc(F)cc1)N1C(=O)[C@@H]2CC1CN2C[C@H](N)C(=O)N1CCC[C@H]1C#N', 'DPP-IV (Homo sapiens, UniProt P27487)', '> 8.22'),
  ('CC(C)(C)NC(=O)N1C[C@@H]2C[C@H]1C(=O)N2C[C@H](N)C(=O)N1CCC[C@H]1C#N', 'DPP-IV (Homo sapiens, UniProt P27487)', '6.30 to 7.29'),
  ('N#C[C@@H]1CCCN1C(=O)CNCCC1(c2nn[nH]n2)c2cc(F)ccc2CCc2ccc(C(N)=O)cc21 (stereo partly shown)', 'DPP-IV (Homo sapiens, UniProt P27487)', '7.30 to 8.22');

Request: Provide pKi, recorded with DPP-IV (Homo sapiens, UniProt P27487), of N#C[C@@H]1CCCN1C(=O)CNCCC1(C(N)=O)c2ccc(C(N)=O)cc2CCc2ccc(F)cc21 (stereo partly shown)
Response: > 8.22

Request: Check DPP-IV (Homo sapiens, UniProt P27487) data and give pKi for N#C[C@@H]1CCCN1C(=O)[C@@H](N)CN1C(=O)[C@@H]2C[C@H]1CN2C(=O)Cc1cccs1 .
Response: 7.30 to 8.22

Request: Look up and report pKi, with DPP-IV (Homo sapiens, UniProt P27487) as system, for N#Cc1cccc(CN2C(=O)[C@@H]3CC2CN3C[C@H](N)C(=O)N2CCC[C@H]2C#N)c1
Response: > 8.22

----------
pKi: −log10 of the molar value.
The following are reported pKi results, target or system DPP-IV (Homo sapiens).

Some molecules with recorded pKi:
INSERT INTO results (molecule, reported_property, assay_value) VALUES
  ('N#Cc1ccc(CN2C(=O)[C@@H]3CC2CN3C[C@H](N)C(=O)N2CCC[C@H]2C#N)cc1 [Example 55]', 'pKi', '> 8.22'),
  ('N#C[C@@H]1CCCN1C(=O)[C@@H](N)CN1C(=O)[C@@H]2C[C@H]1CN2C(=O)c1cnccn1 [Example 71]', 'pKi', '7.30 to 8.22'),
  ('CN(C)C(=O)c1ccc2c(c1)CCc1cc(C(=O)N(C)C)ccc1C2(CCNCC(=O)N1CCC[C@H]1C#N)c1nn[nH]n1 [Example 36]', 'pKi', '7.30 to 8.22'),
  ('N#C[C@@H]1CCCN1C(=O)CNCCC1(c2nn[nH]n2)c2ccc(F)cc2CCc2ccc(F)cc21 (stereo partly shown) [Example 24]', 'pKi', '> 8.22'),
  ('C[C@@H](CN1C[C@@H]2C[C@H]1C(=O)N2Cc1cccc(F)c1)NCC(=O)N1CCC[C@H]1C#N [Example 26]', 'pKi', '6.30 to 7.29');

Request: Given N#C[C@@H]1CCCN1C(=O)CNCCNC1c2ccccc2CCc2cccnc21 (stereo partly shown) [Example 21] , report its pKi on DPP-IV (Homo sapiens).
Response: 6.30 to 7.29

Request: Would you please give the reported pKi of N#C[C@@H]1CCCN1C(=O)[C@@H](N)CN1CC2C[C@H]1C(=O)N2Cc1cc(F)cc(F)c1 [Example 51] with DPP-IV (Homo sapiens)?
Response: > 8.22

Request: Under DPP-IV (Homo sapiens): report pKi of N#C[C@@H]1CCCN1C(=O)[C@@H](N)CN1C(=O)[C@@H]2C[C@H]1CN2S(=O)(=O)c1cccc(F)c1 [Example 65] .
Response: 7.30 to 8.22

Request: Fill: pKi (DPP-IV (Homo sapiens)) for this molecule C[C@H](CC1(C(N)=O)c2ccccc2CCc2ccccc21)NCC(=O)N1CCC[C@H]1C#N [Example 19]
Response: 7.30 to 8.22

Request: Send back DPP-IV (Homo sapiens) pKi of N#C[C@@H]1CCCN1C(=O)CNCCNC1c2ccccc2CCc2ccccc21 [Example 1] only.
Response: 6.30 to 7.29

Request: State, for DPP-IV (Homo sapiens), measured pKi of the molecule listed here: C[C@@H](c1ccc(F)cc1)N1C(=O)[C@@H]2CC1CN2C[C@H](N)C(=O)N1CCSC1 [Example 50]
Response: 7.30 to 8.22

Request: Report pKi on DPP-IV (Homo sapiens) for this entry: N#C[C@@H]1CCCN1C(=O)[C@@H](N)CN1C(=O)[C@@H]2C[C@H]1CN2S(=O)(=O)c1ccsc1 [Example 67]
Response: > 8.22

----------
Measurement record for DPP-IV (Homo sapiens, UniProt P27487); quantity recorded: Ki.

# example entries with known answers
INSERT INTO assay_data (compound, assay_value) VALUES
  ('CN1C(=O)c2ccccc2C(CCNCC(=O)N2CCC[C@H]2C#N)(c2nn[nH]n2)c2ccccc21 (stereo partly shown) [Example 46]', '500 to 30000 nM'),
  ('N#C[C@@H]1C[C@@H]2C[C@@H]2N1C(=O)[C@@H](N)CN1CC2C[C@H]1C(=O)N2Cc1cc(F)cc(F)c1 [Example 52]', '< 6 nM'),
  ('C[C@@H](c1ccc(F)cc1)N1C(=O)[C@@H]2CC1CN2C[C@H](N)C(=O)N1[C@H](C#N)C[C@@H]2C[C@@H]21 [Example 58]', '< 6 nM');

Now examine the next entry.
Request: Let me know recorded Ki for C[C@@H](CC1(C(N)=O)c2ccc(C(=O)N(C)C)cc2CCc2cc(C(=O)N(C)C)ccc21)NCC(=O)N1CCC[C@H]1C#N [Example 39] , thanks.
Response: 6 to 50 nM
